Cited source: patent US20200024330A1

# reported IC50 neutralization; entries follow
# target under test: HIV-1 MGRM-A-010 envelope glycoprotein (Env) (HIV-1)
# assay summary: cell-based or functional assay
assay readout: IC50 neutralization (µg/mL)

- binder: "PGT-130 (antibody, V domains shown) VH: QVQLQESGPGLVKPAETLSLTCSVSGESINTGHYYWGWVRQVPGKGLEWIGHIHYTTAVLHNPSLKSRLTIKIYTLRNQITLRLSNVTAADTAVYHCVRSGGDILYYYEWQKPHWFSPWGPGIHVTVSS VL: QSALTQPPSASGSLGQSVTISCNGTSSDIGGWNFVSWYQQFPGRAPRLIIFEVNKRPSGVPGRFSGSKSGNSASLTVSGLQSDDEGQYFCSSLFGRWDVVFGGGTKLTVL"
  unit annotation: "µg/mL"
  comparator: "="
  obs value: 0.0054
- binder: "PGT-135 (antibody, V domains shown) VH: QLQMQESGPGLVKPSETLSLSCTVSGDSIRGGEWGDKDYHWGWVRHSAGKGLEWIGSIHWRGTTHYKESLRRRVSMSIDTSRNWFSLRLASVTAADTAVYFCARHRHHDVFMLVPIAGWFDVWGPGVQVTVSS VL: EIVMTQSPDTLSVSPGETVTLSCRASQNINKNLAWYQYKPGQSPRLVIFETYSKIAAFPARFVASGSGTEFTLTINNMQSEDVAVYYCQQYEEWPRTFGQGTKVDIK"
  unit annotation: "µg/mL"
  comparator: ">"
  obs value: 10
- binder: "PGT-123 (antibody, V domains shown) VH: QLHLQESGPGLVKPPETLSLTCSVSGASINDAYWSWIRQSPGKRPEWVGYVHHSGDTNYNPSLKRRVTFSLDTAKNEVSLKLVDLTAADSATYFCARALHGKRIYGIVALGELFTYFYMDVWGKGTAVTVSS VL: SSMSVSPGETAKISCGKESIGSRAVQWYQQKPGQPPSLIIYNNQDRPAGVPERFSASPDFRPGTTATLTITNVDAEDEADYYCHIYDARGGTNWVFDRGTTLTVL"
  unit annotation: "µg/mL"
  comparator: "="
  obs value: 0.492
